System: B-16 melanoma cells
Assay: Evaluation of melanin production-inhibitory function (degree of whiteness of cultured cells); further: key: ++: The degree of whiteness is higher than that observed for the positive control; +: The degree of whiteness is almost identical to that of the positive control; ±: The degree of whiteness is not higher than that observed for the positive control, but higher than that observed for control; −: The degree of whiteness is almost identical to that observed for the control
Type: cell-based
Conditions: Concentration 50 ppm; rank vs 450 ppm vitamin C-magnesium phosphate
From the text: The melanin production-inhibitory function of the 5-membered ring-containing triterpenes incorporated into the foods or beverages and orally administered whitening agents of the present invention can be determined by a test method, which makes use of cultured melanocytes. […] The melanin production-inhibitory function can likewise be evaluated on the basis of this degree of relative whitening. […]
measure: Evaluation of Melanin Production-Inhibition (degree of whiteness of cells)

- compound: "O=c1cc(CO)occ1O [Kojic acid, reference compound]"
  result: "±"
- compound: "C=C(C)[C@@H]1CC[C@]2(C(=O)OCC)CC[C@]3(C)[C@H](CC[C@@H]4[C@@]5(C)CC[C@H](O)C(C)(C)[C@@H]5CC[C@]43C)[C@@H]12 [Compound of Synthetic Example 8, Betulinic Acid Ethyl Ester]"
  result: "+"
- compound: "C=C(C)[C@@H]1CC[C@]2(COC(C)=O)CC[C@]3(C)[C@H](CC[C@@H]4[C@@]5(C)CC[C@H](OC(C)=O)C(C)(C)[C@@H]5CC[C@]43C)[C@@H]12 [Compound of Synthetic Example 9, 3,28-O-di-Acetyl-Betulin]"
  result: "+"
- compound: "CC1(C)CC[C@]2(CO)CC[C@]3(C)C(=CC[C@@H]4[C@@]5(C)CC[C@H](O)C(C)(C)[C@@H]5CC[C@]43C)[C@@H]2C1 [Erythrodiol]"
  result: "+"
- compound: "CC(=O)OC[C@]12CC[C@@H](C)[C@H](C)[C@H]1C1=CC[C@@H]3[C@@]4(C)CC[C@H](OC(C)=O)C(C)(C)[C@@H]4CC[C@@]3(C)[C@]1(C)CC2 [Compound of Synthetic Example 7, 3,28-O-di-Acetyl-Uvaol]"
  result: "+"
- compound: "CC(=O)OCC12CCC(C)(C)CC1C1=CCC3C4(C)CCC(OC(C)=O)C(C)(C)C4CCC3(C)C1(C)CC2 (stereo not drawn) [Compound of Synthetic Example 5, 3,28-O-di-Acetyl-Erythrodiol]"
  result: "+"

====

Tested on: B-16 melanoma cells
Assay: Evaluation of melanin production-inhibitory function (degree of whiteness of cultured cells); further: key: ++: The degree of whiteness is higher than that observed for the positive control; +: The degree of whiteness is almost identical to that of the positive control; ±: The degree of whiteness is not higher than that observed for the positive control, but higher than that observed for control; −: The degree of whiteness is almost identical to that observed for the control
Format: cell-based
Conditions: Concentration 2 ppm; rank vs 450 ppm vitamin C-magnesium phosphate
measure: Evaluation of Melanin Production-Inhibition (degree of whiteness of cells)

- compound: "CC(=O)OCC12CCC(C)(C)CC1C1=CCC3C4(C)CCC(OC(C)=O)C(C)(C)C4CCC3(C)C1(C)CC2 (stereo not drawn) [Compound of Synthetic Example 5, 3,28-O-di-Acetyl-Erythrodiol]"
  result: "−"
- compound: "C[C@H]1[C@H](C)CC[C@]2(C(=O)O)CC[C@]3(C)C(=CC[C@@H]4[C@@]5(C)CC[C@H](O)C(C)(C)[C@@H]5CC[C@]43C)[C@H]12"
  result: "±"
- compound: "C=C(C)[C@@H]1CC[C@]2(C(=O)O)CC[C@]3(C)[C@H](CC[C@@H]4[C@@]5(C)CC[C@H](O)C(C)(C)[C@@H]5CC[C@]43C)[C@@H]12"
  result: "−"
- compound: "C=C(C)[C@@H]1CC[C@]2(COC(C)=O)CC[C@]3(C)[C@H](CC[C@@H]4[C@@]5(C)CC[C@H](OC(C)=O)C(C)(C)[C@@H]5CC[C@]43C)[C@@H]12 [Compound of Synthetic Example 9, 3,28-O-di-Acetyl-Betulin]"
  result: "−"
- compound: "CCOC(=O)[C@]12CCC(C)(C)C[C@H]1C1=CC[C@@H]3[C@@]4(C)C[C@@H](O)[C@H](O)C(C)(C)[C@@H]4CC[C@@]3(C)[C@]1(C)CC2 [Compound of Synthetic Example 1, Ethyl Maslinate]"
  result: "±"
- compound: "CC(=O)OC[C@]12CC[C@@H](C)[C@H](C)[C@H]1C1=CC[C@@H]3[C@@]4(C)CC[C@H](OC(C)=O)C(C)(C)[C@@H]4CC[C@@]3(C)[C@]1(C)CC2 [Compound of Synthetic Example 7, 3,28-O-di-Acetyl-Uvaol]"
  result: "−"
- compound: "C=C(C)[C@@H]1CC[C@]2(CO)CC[C@]3(C)[C@H](CC[C@@H]4[C@@]5(C)CC[C@H](O)C(C)(C)[C@@H]5CC[C@]43C)[C@@H]12"
  result: "−"
- compound: "CCOC(=O)[C@]12CC[C@@H](C)[C@H](C)[C@H]1C1=CC[C@@H]3[C@@]4(C)CC[C@H](O)C(C)(C)[C@@H]4CC[C@@]3(C)[C@]1(C)CC2 [Compound of Synthetic Example 6, Ursolic Acid Ethyl Ester]"
  result: "±"
- compound: "CC1(C)CC[C@]2(CO)CC[C@]3(C)C(=CC[C@@H]4[C@@]5(C)CC[C@H](O)C(C)(C)[C@@H]5CC[C@]43C)[C@@H]2C1"
  result: "±"
- compound: "C=C(C)[C@@H]1CC[C@]2(C(=O)OCC)CC[C@]3(C)[C@H](CC[C@@H]4[C@@]5(C)CC[C@H](O)C(C)(C)[C@@H]5CC[C@]43C)[C@@H]12 [Compound of Synthetic Example 8, Betulinic Acid Ethyl Ester]"
  result: "−"
- compound: "CC(=O)O[C@@H]1C[C@]2(C)[C@H]3CC=C4[C@@H]5CC(C)(C)CC[C@]5(C(=O)O)CC[C@@]4(C)[C@]3(C)CC[C@H]2C(C)(C)[C@H]1OC(C)=O [Compound of Synthetic Example 2, 2,3-O-di-Acetyl-Maslinic Acid]"
  result: "±"
- compound: "C[C@H]1[C@H](C)CC[C@]2(CO)CC[C@]3(C)C(=CC[C@@H]4[C@@]5(C)CC[C@H](O)C(C)(C)[C@@H]5CC[C@]43C)[C@H]12"
  result: "−"

====

System: deposition of melanin pigment on the skin induced by the UV light irradiation
Experiment: Animal test for the confirmation of whitening effect (UV-induced skin pigmentation, test feed)
Type: in vivo, Brown guinea pigs
Conditions: number of 7 animals ranked No Change; 500.0 mg/kg feed, free ingestion, 4 weeks
Evaluation Results NC by entry:
measure: Evaluation Results NC

- molecule: "CC1(C)CC[C@]2(C(=O)O)CC[C@]3(C)C(=CC[C@@H]4[C@@]5(C)C[C@@H](O)[C@H](O)C(C)(C)[C@@H]5CC[C@]43C)[C@@H]2C1 [Purified maslinic acid 2, maslinic acid]"
  quantitative.result: 0
- molecule: "C[C@H]1[C@H](C)CC[C@]2(CO)CC[C@]3(C)C(=CC[C@@H]4[C@@]5(C)CC[C@H](O)C(C)(C)[C@@H]5CC[C@]43C)[C@H]12"
  quantitative.result: 1
- molecule: "C=C(C)[C@@H]1CC[C@]2(C(=O)O)CC[C@]3(C)[C@H](CC[C@@H]4[C@@]5(C)CC[C@H](O)C(C)(C)[C@@H]5CC[C@]43C)[C@@H]12"
  quantitative.result: 0
- molecule: "CCOC(=O)[C@]12CCC(C)(C)C[C@H]1C1=CC[C@@H]3[C@@]4(C)C[C@@H](O)[C@H](O)C(C)(C)[C@@H]4CC[C@@]3(C)[C@]1(C)CC2 [Compound of Synthetic Example 1, Ethyl Maslinate]"
  quantitative.result: 1

====

Recorded Evaluation Results NC for the following compounds
Tested on: deposition of melanin pigment on the skin induced by the UV light irradiation
Experiment: Animal test for the confirmation of whitening effect (UV-induced skin pigmentation, test feed)
Type: in vivo, Brown guinea pigs
Details: number of 7 animals ranked No Change; 500.0 mg/kg feed, free ingestion, 4 weeks
measure: Evaluation Results NC

- compound: "CC1(C)CC[C@]2(C(=O)O)CC[C@]3(C)C(=CC[C@@H]4[C@@]5(C)C[C@@H](O)[C@H](O)C(C)(C)[C@@H]5CC[C@]43C)[C@@H]2C1 [Purified maslinic acid 1, maslinic acid]"
  measure: "Evaluation Results NC"
  result: 0
- compound: "C[C@H]1[C@H](C)CC[C@]2(C(=O)O)CC[C@]3(C)C(=CC[C@@H]4[C@@]5(C)CC[C@H](O)C(C)(C)[C@@H]5CC[C@]43C)[C@H]12"
  measure: "Evaluation Results NC"
  result: 0
- compound: "CC(=O)O[C@@H]1C[C@]2(C)[C@H]3CC=C4[C@@H]5CC(C)(C)CC[C@]5(C(=O)O)CC[C@@]4(C)[C@]3(C)CC[C@H]2C(C)(C)[C@H]1OC(C)=O [Compound of Synthetic Example 2, 2,3-O-di-Acetyl-Maslinic Acid]"
  measure: "Evaluation Results NC"
  result: 0
- compound: "CC1(C)CC[C@]2(CO)CC[C@]3(C)C(=CC[C@@H]4[C@@]5(C)CC[C@H](O)C(C)(C)[C@@H]5CC[C@]43C)[C@@H]2C1"
  measure: "Evaluation Results NC"
  result: 1
- compound: "C=C(C)[C@@H]1CC[C@]2(CO)CC[C@]3(C)[C@H](CC[C@@H]4[C@@]5(C)CC[C@H](O)C(C)(C)[C@@H]5CC[C@]43C)[C@@H]12"
  measure: "Evaluation Results NC"
  result: 1
